The values you see were collected from the array DNA melting data of Ke et al. (doi:10.1101/2024.01.08.574731).

Assay: folding enthalpy; higher = less favourable; fluorescence melt of hairpins on a sequencing array, two-state fit
Settings: sodium 0.088 M
observable: folding enthalpy (kcal/mol)
All answers are understood in kcal/mol, so give the number only.

The following sequences have reported results that may help.
sequence_input	measured_number
GATCAAGATATTGATC ((((((....))))))	-34.7
GCAGACCGAAAGGTTGC (((.(((....))))))	-28.9
CGATACCGGAAACGGTCG (((..(((....))))))	-12.3
GGTCCACCGAAAGGTACC (((..(((....))))))	-11.9
GATCCCGTCGGGATC ((((((...))))))	-37.7

// next entry
Which folding enthalpy is reported for this sequence? GATCGGACCACCGATC ((((((....))))))
-37.2
